- PROCEDURE SUMMARY: Mouse plasma protein binding
- Format: in vitro ADME
- CONDITION INFO: read-out: mouse PPB

{"SMILES TEXT": "O=C(NCCO)c1ccc(-c2nnc(Cc3c[nH]c4ccccc34)nc2-c2ccccc2)cc1", "fraction unbound": 0.011}
{"SMILES TEXT": "CNC(=O)c1ccc(-c2nnc(Cc3c[nH]c4cnccc34)nc2-c2ccccc2)cc1", "fraction unbound": 0.038}

###

- PROCEDURE SUMMARY: physchem
- CONDITION INFO: pH 7.4, Kinetic Solubility, Mean, PBS pH7.4 in 2% DMSO by plate reader
As shown below, each of these compounds has a reported solubility kinetic value.

{"COMPOUND": "c1ccc(-c2nc[nH]c2-c2ccccc2)cc1 [DPI, 4,5-Diphenylimidazole, reference compound]", "solubility kinetic": "30 µM"}
{"COMPOUND": "CC(=O)N1CCN(c2ccc(OCC3COC(Cn4ccnc4)(c4ccc(Cl)cc4Cl)O3)cc2)CC1 (centres unmarked) [Ketoconazole, reference compound]", "solubility kinetic": "129 µM"}
